Molecular target: mature GDF8 (UniProt O14793 267-375)
Sequence (O14793 267-375): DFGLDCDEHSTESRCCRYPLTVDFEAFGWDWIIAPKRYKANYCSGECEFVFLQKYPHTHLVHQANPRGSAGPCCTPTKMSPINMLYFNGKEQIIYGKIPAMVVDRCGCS
Assay: BIAcore
measurementKind: pKd
Scale: pKd equals -log10([C]), with [C] in mol/L.

binder="1-66-1 (antibody, V domains shown) VH: EVQLVESGGGLVKPGGSLRLSCAASGFTFSSYSMNWVRQAPGKGLEWVSSISSSSSYIYYADSVKGRFTISRDNAKNSLYLQMNSLRAEDTAVYYCARDRGYSYGLDYWGQGTLVTVSS VL: DIQMTQSPSSLSASVGDRVTITCRASQGIRNDLGWYQQKPGKAPKRLIYAASSLQSGVPSRFSGSGSGTEFTLTISSLQPEDFATYYCLQLNSYPFTFGPGTKVDIKR" measurementkind=pKd result=10.08
binder="1-116-1 (antibody, V domains shown) VH: EVQLVESGGGLVKPGGSLRLSCAASGFTFSSYSMNWVRQAPGKGLEWVSSISSSSSYIYYADSVKGRFTISRDNAKNSLYLQMNSLRAEDTAVYYCARDRGYSYGLDYWGQGTLVTVSS VL: DIQMTQSPSSLSASVGDRVTITCRASQGIRNALGWYQQKPGKAPQRLIYAASSLQSGVPSRFSGSGSGTEFTLTISSLQPEDFATYYCLQHNSYPRTFGQGTKVEIKR" measurementkind=pKd result=10.92
binder="1-314-1 (antibody, V domains shown) VH: EVQLVESGGGLVKPGGSLRLSCAASGFTFSSYSMNWVRQAPGKGLEWVSSISSSSSYIYYADSVKGRFTISRDNAKNSLYLQMNSLRAEDTTVYYCARDRGYLYGMDVWGQGTTVTVSS VL: DIQMTQSPSSLSASVGDRVTITCRASQAIRNDLGWYQQKPGKAPKRLIYAASSLQSGVPSRFSGSGSGTEFTLTISSLQPEDFATYYCLQHNSYPRTFGQGTKVEIKR" measurementkind=pKd result=9.96

Problem: Determine its reported pKd: 1-136-3 (antibody, V domains shown) VH: EVQLVESGGGLVKPGGSLRLSCAASGFTFSSYSMNWVRQAPGKGLEWVSSISSSSSYIYYADSVKGRFTISRDNAKNSLYLQMNSLRAEDTAVYYCARDRGYSYGIDYWGQGTLVTVSS VL: DIQMTQSPSSLSASVGDRVTITCRASQGIRNALGWYQQKPGKAPKRLIYAASSLQSGVPSRFSGSGSGTEFTLTISSLQPEDFATYYCLQHNSYPRTFGQGTKVEIKR
Solution: 10.37
